This collection of values is drawn from patent US9982005B2.

Readings of MIC for the listed compounds
# Tested on: BS1723 B. subtilis BS168 WT wild type
# procedure_details: broth dilution MIC, B. subtilis BS1723
# Type: cell-based
# condition_parameters: Bacillus subtilis, BS1723 B. subtilis BS168 WT wild type; read-out: MIC
metric_name: MIC (µg/mL)

• CC[C@H]1OC(=O)C(C)(F)C(=O)[C@@H](C)[C@@H](O[C@@H]2OC(C)CC(N(C)C)C2O)[C@](C)(OC)C[C@@H](C)CN[C@H](C)[C@H]2N(CCCCn3cc(-c4nc5ccccc5s4)nn3)C(=O)O[C@]12C (stereo partly drawn) [FSM-20722] = 16
• CC[C@H]1OC(=O)C(C)(F)C(=O)[C@@H](C)[C@@H](O[C@@H]2OC(C)CC(N(C)C)C2O)[C@](C)(OC)C[C@@H](C)CN[C@H](C)[C@H]2N(CCCCn3cc(-c4nccs4)nn3)C(=O)O[C@]12C (stereo partly drawn) [FSM-20721] = 8
• CC[C@H]1OC(=O)C(C)(F)C(=O)[C@@H](C)[C@@H](O[C@@H]2OC(C)CC(N(C)C)C2O)[C@](C)(OC)C[C@@H](C)CN(C)[C@H](C)[C@H]2N(CCCCn3cc(-c4nccs4)nn3)C(=O)O[C@]12C (stereo partly drawn) [FSM-20705] = 8
• CC[C@H]1OC(=O)[C@H](C)C(=O)[C@H](C)[C@@H](O[C@@H]2OC(C)CC(N(C)C)C2O)[C@](C)(OC)C[C@@H](C)CN(C(C)=O)[C@H](C)[C@H]2N(CCCCn3cc(-c4ccccn4)nn3)C(=O)O[C@]12C (stereo partly drawn) [FSM-20766] = 32
• CC[C@H]1OC(=O)[C@H](C)C(=O)[C@H](C)[C@@H](O[C@@H]2OC(C)CC(N(C)C)C2O)[C@](C)(OC)C[C@@H](C)CN[C@H](C)[C@H]2N(CCCCn3cc(-c4nccs4)nn3)C(=O)O[C@]12C (stereo partly drawn) [FSM-20708] = 1

* * *

Entries and their MIC values follow.
# System: BS1723 B. subtilis BS168 WT wild type
# procedure_details: broth dilution MIC, B. subtilis BS1723
# Assay type: cell-based
# condition_parameters: Bacillus subtilis, BS1723 B. subtilis BS168 WT wild type; read-out: MIC
metric_name: MIC (µg/mL)

• CC[C@H]1OC(=O)[C@H](C)C(=O)[C@H](C)[C@@H](O[C@@H]2OC(C)CC(N(C)C)C2O)[C@](C)(OC)C[C@@H](C)CN(C(C)=O)[C@H](C)[C@H]2N(CCCCn3cc(-c4cccc(N)c4)nn3)C(=O)O[C@]12C (stereo partly shown) = 16
• CC[C@H]1OC(=O)[C@H](C)C(=O)[C@H](C)[C@@H](O[C@@H]2OC(C)CC(N(C)C)C2O)[C@](C)(OC)C[C@@H](C)CN[C@H](C)[C@H]2N(CCCCn3cc(-c4cccc(N)c4)nn3)C(=O)O[C@]12C (stereo partly shown) = 0.5
• CC[C@H]1OC(=O)[C@H](C)C(=O)[C@H](C)[C@@H](O[C@@H]2OC(C)CC(N(C)C)C2O)[C@](C)(OC)C[C@@H](C)CN[C@H](C)[C@H]2N(CCCCn3cc(-c4cccc(N)n4)nn3)C(=O)O[C@]12C (stereo partly shown) = 1
• CC[C@H]1OC(=O)C(C)(F)C(=O)[C@@H](C)[C@@H](O[C@@H]2OC(C)CC(N(C)C)C2O)[C@](C)(OC)C[C@@H](C)CN[C@H](C)[C@H]2N(CCCCn3cc(-c4cccc(N)n4)nn3)C(=O)O[C@]12C (stereo partly shown) = 8
